- target system: Stb5 (UniProt P38699)
- Sequence: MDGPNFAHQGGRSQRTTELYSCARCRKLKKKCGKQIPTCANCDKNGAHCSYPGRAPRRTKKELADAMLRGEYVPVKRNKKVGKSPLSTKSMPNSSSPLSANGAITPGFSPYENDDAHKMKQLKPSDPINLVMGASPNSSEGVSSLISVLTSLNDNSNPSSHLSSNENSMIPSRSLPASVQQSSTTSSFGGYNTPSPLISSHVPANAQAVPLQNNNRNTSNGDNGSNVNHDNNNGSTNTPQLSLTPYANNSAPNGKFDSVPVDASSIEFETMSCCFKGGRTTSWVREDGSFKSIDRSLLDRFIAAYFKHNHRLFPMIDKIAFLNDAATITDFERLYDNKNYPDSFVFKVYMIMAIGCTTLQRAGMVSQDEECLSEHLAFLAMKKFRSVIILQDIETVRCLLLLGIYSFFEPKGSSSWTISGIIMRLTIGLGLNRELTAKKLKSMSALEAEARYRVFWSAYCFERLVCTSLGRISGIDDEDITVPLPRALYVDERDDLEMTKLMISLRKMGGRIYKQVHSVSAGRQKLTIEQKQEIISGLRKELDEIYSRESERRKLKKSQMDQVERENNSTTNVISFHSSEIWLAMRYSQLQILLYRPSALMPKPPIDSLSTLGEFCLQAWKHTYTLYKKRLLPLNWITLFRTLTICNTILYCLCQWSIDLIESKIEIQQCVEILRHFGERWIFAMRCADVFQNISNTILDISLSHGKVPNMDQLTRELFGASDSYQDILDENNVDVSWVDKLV
- method notes: PBM E-score (8-mer binding enrichment) (E-score (-0.5 to 0.5)); higher = stronger / more preferred TF binding
- stated conditions: protein concentration: 200 nM; construct: GST-full length
The full ranking holds about 33,000 sequences; the median of “E-score (-0.5 to 0.5)” is about -0.054, and the highest 2% start at about 0.35. For the sample, the highest values were picked, then their nearest neighbours and some sequences at random.
The label depends only on PBM E-score: true if it is at least 0.3, false if it is smaller.

Given the entry "CAGTCCCG" , answer whether its PBM E-score meets or surpasses 0.3.
false

Repeat with "AAGTCCAT"
false

Repeat with "CCATCTAA"
false

Repeat with "ATATATCA"
false

Repeat with "AGAAAGAC"
false

Repeat with "AAGTCCCG"
true

Repeat with "AGCGATGA"
false

Repeat with "CGCACCGA"
false

Repeat with "CTCCTGTC"
false

Repeat with "CAATGGCC"
false

Repeat with "CGTCGGGA"
true

Repeat with "ATGCCGTC"
true

Repeat with "CGGCGGAC"
true

Repeat with "CGAGCGGA"
true

Repeat with "CCGCCGGC"
true

Repeat with "CGGCGGAG"
true

Repeat with "AGCGGACC"
true

Repeat with "CGGCGGAA"
true

Repeat with "AAACAGAC"
false

Repeat with "CCGATGCG"
true

Repeat with "AAGTCCTA"
false

Repeat with "CCGCGGAC"
true

Repeat with "ACACGGTA"
false

Repeat with "AGTCGGGC"
true

Repeat with "AAGTCCGC"
true

Repeat with "CCGCCGAA"
true

Repeat with "ATCGGTTG"
false

Repeat with "GCGCCGAC"
false

Repeat with "CTCTACCC"
false

Repeat with "CGGGCGGA"
true

Repeat with "AGATGCGA"
false

Repeat with "AGAGCGGA"
true

Repeat with "CGGCCGGC"
false

Repeat with "AGCACCGC"
true

Repeat with "CCGGCGGA"
true

Repeat with "CCGGCGGC"
true

Repeat with "CGCACCTC"
false

Repeat with "AGCACCAC"
false

Repeat with "CAGTCCGG"
false

Repeat with "AACAGTTG"
false

Repeat with "CTAAGGCA"
false

Repeat with "CCGCGGAA"
false

Repeat with "CCGCCGAC"
true

Repeat with "GCTCGGCA"
false
